# MEASUREMENT TARGET: T1, GST-Pirh2_(1–195) (human, UniProt Q96PM5 1-195)
# T1 sequence: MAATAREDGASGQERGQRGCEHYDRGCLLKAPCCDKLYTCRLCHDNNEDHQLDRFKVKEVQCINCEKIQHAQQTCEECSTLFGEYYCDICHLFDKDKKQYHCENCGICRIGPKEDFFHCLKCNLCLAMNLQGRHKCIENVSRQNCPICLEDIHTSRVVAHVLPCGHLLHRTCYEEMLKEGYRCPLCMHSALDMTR
# ASSAY PROTOCOL: AlphaScreen or HTRF
pIC50: −log10 of the molar value.
READOUT: pIC50

What does the data say about its pIC50? Entry: MDELYKAAAAAA [MDELYKAAAAAA (Ala-tail peptide, non-biotinylated)]
6.92 to 7.05
